These entries and their values trace back to patent US7803801B2.

# System: cultured human mast cells
# assay.name: Degranulation inhibition test using cultured human mast cells (IgE cross-linking, β-Hexosaminidase release)
# Format: cell-based
# run.parameters: Mast cell; Tables 1-x, compounds A; cultured human mast cells; read-out: human degranulation ave. IC50
readout.label: IC50

Before answering, review these 3 worked examples.
Cc1ccnc(Nc2cccc(-c3cnc(COCC(=O)N4C[C@H](NCc5ccccc5)[C@@H](O)C4)s3)n2)c1	> 1000 nM
Cc1ccnc(Nc2cccc(-c3cnc(N4CCN(C=O)CC4)s3)n2)c1	< 100 nM
CNC(=O)CN(C)C(=O)C1CCN(c2ncc(-c3cccc(Nc4cc(C)ccn4)n3)s2)CC1	100 to 1000 nM

Which measured IC50 value corresponds to CC(=O)c1ccnc(Nc2cccc(-c3cnc(N4CCC(C(N)=O)CC4)s3)n2)c1 ?
100 to 1000 nM

Which measured IC50 value corresponds to Cc1ccnc(Nc2cccc(-c3cnc(N4CCC(NC(=O)CO)CC4)s3)n2)c1 ?
100 to 1000 nM

Which measured IC50 value corresponds to Cc1ccnc(Nc2cccc(-c3cnc(N4CCC[C@@H](CC(=O)O)C4)s3)n2)c1 ?
100 to 1000 nM

Which measured IC50 value corresponds to CNC(=O)COCC1CCCN(c2ncc(-c3cccc(Nc4cc(C)ccn4)n3)s2)C1 (centres unmarked) ?
100 to 1000 nM

Which measured IC50 value corresponds to COC1CCN(c2ncc(-c3cccc(Nc4cc(C)ccn4)n3)s2)CC1 ?
100 to 1000 nM

====

Each entry below carries its reported pIC50.
# experimental.system: GST-Syk Full Protein (human) (Homo sapiens, UniProt P43405)
# assay.name: Syk kinase inhibition test (HTRF method)
# Format: biochemical
# run.parameters: Tables 2-x, thiophene compounds B; read-out: sykHTRK ave IC50
pIC50: −log10 of the molar value.

Before answering, review these 6 worked examples.
Cc1ccnc(Nc2cccc(-c3ccc(C(C)O)s3)n2)c1 (stereo not drawn)	6.00 to 7.00
Cc1ccnc(Nc2cccc(-c3ccc(-c4noc(=O)[nH]4)s3)n2)c1	6.00 to 7.00
CC(=O)c1ccc(-c2cccc(Nc3cc(C4=NC(C)(C)CO4)ccn3)n2)s1	> 7.00
Cc1ccnc(Nc2cccc(-c3cccs3)n2)c1	6.00 to 7.00
Cc1ccnc(Nc2cccc(-c3ccc([N+](=O)[O-])s3)n2)c1	6.00 to 7.00
Cc1ccnc(Nc2cccc(-c3ccc(C)s3)n2)c1	6.00 to 7.00

Which measured pIC50 value corresponds to CCOC(=O)Cc1ccnc(Nc2cccc(-c3ccc(C(C)=O)s3)n2)c1 ?
> 7.00

Which measured pIC50 value corresponds to COC(=O)c1ccnc(Nc2cccc(-c3ccc(C(C)=O)s3)n2)c1 ?
> 7.00

====

# Tested on: cultured human mast cells
# assay.name: Degranulation inhibition test using cultured human mast cells (IgE cross-linking, β-Hexosaminidase release)
# Assay type: cell-based
# run.parameters: Mast cell; Tables 1-x, compounds A; cultured human mast cells; read-out: human degranulation ave. IC50
Structures can show the parent of a compound that is named as a salt.
Each entry below carries its reported IC50.

Before answering, review these 4 worked examples.
Cc1ccnc(Nc2cccc(-c3cnc(N(C)C4CCN(C(=O)c5ccc(O)cc5)CC4)s3)n2)c1 [Compound A-513]	100 to 1000 nM
Cc1ccnc(Nc2cccc(-c3cnc(N(C)CC(=O)NCCC(=O)O)s3)n2)c1 [Compound A-570, dihydrochloride]	> 1000 nM
Cc1ccnc(Nc2cccc(-c3cnc(N(C)Cc4ccc(O)cc4)s3)n2)c1 [Compound A-471]	100 to 1000 nM
CC(=O)N[C@@H]1CCN(c2ncc(-c3cccc(Nc4cc(C)ccn4)n3)s2)C1 [Compound A-472]	100 to 1000 nM

Which measured IC50 value corresponds to Cc1ccnc(Nc2cccc(-c3cnc(N4CCC[C@H]4C(=O)NCC(F)(F)F)s3)n2)c1 [Compound A-530] ?
100 to 1000 nM

Which measured IC50 value corresponds to Cc1ccnc(Nc2cccc(-c3cnc(N(C)Cc4ccc(C(=O)O)cc4)s3)n2)c1 [Compound A-574, dihydrochloride] ?
100 to 1000 nM

Which measured IC50 value corresponds to CC(=O)NCCN(C)c1ncc(-c2cccc(Nc3cc(C)ccn3)n2)s1 [Compound A-508] ?
100 to 1000 nM

Which measured IC50 value corresponds to Cc1ccnc(Nc2cccc(-c3cnc(N4CCN(C)CC4)s3)n2)c1 [Compound A-432] ?
100 to 1000 nM
